Task for the reader: assign each of the following compounds its reported inhibition.
system: Mycobacterium tuberculosis H37Rv; experiment: Inhibition of Mycobacterium tuberculosis H37Rv chorismate mutase expressed in Escherichia coli BL21 (DE3) assessed as conversion of chorismate to prephenate at 50 uM after 5 mins by spectrophotometry
Form entry: value (%) — number only.

Query N#CC1=C(N)Oc2c(ccc3ccccc23)C1c1cccc(C#CC2(O)CCCCC2)c1 (configuration not stated) yields inhibition of 28

Query COC(=O)/C=C/c1cccc(C2C(C#N)=C(N)Oc3ccc4ccccc4c32)c1 (configuration not stated) yields inhibition of 33

Query N#CC1=C(N)Oc2ccc3ccccc3c2C1c1cccc(C#CCCO)c1 (configuration not stated) yields inhibition of 69

Query CCCCCCCCC#Cc1ccccc1C1C(C#N)=C(N)Oc2c1ccc1ccccc21 (configuration not stated) yields inhibition of 50

Query N#CC1=C(N)Oc2ccc3ccccc3c2C1c1cccc(C#CCCCO)c1 (configuration not stated) yields inhibition of 70

Query CC(=O)/C=C/c1cccc(C2C(C#N)=C(N)Oc3ccc4ccccc4c32)c1 (configuration not stated) yields inhibition of 10

Query CCCCC#Cc1ccccc1C1C(C#N)=C(N)Oc2c1ccc1ccccc21 (configuration not stated) yields inhibition of 57

Query CCCCCCC#Cc1ccccc1C1C(C#N)=C(N)Oc2c1ccc1ccccc21 (configuration not stated) yields inhibition of 55

Query CCOC(=O)/C=C/c1cccc(C2C(C#N)=C(N)Oc3ccc4ccccc4c32)c1 (configuration not stated) yields inhibition of 30

Query CC(C)(C)OC(=O)/C=C/c1cccc(C2C(C#N)=C(N)Oc3ccc4ccccc4c32)c1 (configuration not stated) yields inhibition of 64

Query N#CC1=C(N)Oc2c(ccc3ccccc23)C1c1cccc(C#CCCCO)c1 (configuration not stated) yields inhibition of 32

Query N#CC1=C(N)Oc2c(ccc3ccccc23)C1c1ccccc1C#CC1(O)CCCCC1 (configuration not stated) yields inhibition of 24

These data points were gathered from ChEMBL document CHEMBL1914370.
